- Tested on: apoBNOX
- RUN DESCRIPTION: superoxide dismutase-resistant apoBNOX activity by ferricytochrome c reduction
- Type: biochemical
- EXPERIMENTAL CONDITIONS: apoBNOX associated with lipoprotein particles
VALUE TYPE: inhibition of apoBNOX

Short answer on apoBNOX for "COC1=C(OC)C(=O)C(C/C=C(\C)CC/C=C(\C)CC/C=C(\C)CC/C=C(\C)CC/C=C(\C)CC/C=C(\C)CC/C=C(\C)CC/C=C(\C)CCC=C(C)C)=C(C)C1=O" , inhibition of apoBNOX: relatively ineffective

The observed inhibition of apoBNOX for "O=c1cc(-c2ccc(O)cc2)oc2cc(O)cc(O)c12" when tested with apoBNOX stands at resist inhibition

Field inhibition of apoBNOX (apoBNOX), entry "COC1=C(OC)C(=O)C(C/C=C(\C)CC/C=C(\C)CC/C=C(\C)CC/C=C(\C)CC/C=C(\C)CC/C=C(\C)CC/C=C(\C)CC/C=C(\C)CC/C=C(\C)CCC=C(C)C)=C(C)C1=O" : resist inhibition

For "COC1=C(OC)C(=O)C(C/C=C(\C)CC/C=C(\C)CC/C=C(\C)CC/C=C(\C)CC/C=C(\C)CC/C=C(\C)CC/C=C(\C)CCC=C(C)C)=C(C)C1=O" on apoBNOX, measured inhibition of apoBNOX was relatively ineffective
